- System: quackgrass
- assay.explanation: Test E pre-/postemergence herbicide test
- Assay type: in vivo, Elytrigia repens
- condition.notes: Preemergence; 250 g ai/ha; scale 0 (no effect) to 100 (complete control)
measurement.name: Plant response rating, Quackgrass
Give the value as a plain number.

compound CCc1nn(C(C)(C)C)nc1C(=O)Nc1cccc(C(=O)N(C)CC)c1 , Plant response rating, Quackgrass observed: 85

Note to self: Plant response rating, Quackgrass recorded for CCc1nn(C(C)(C)C)cc1C(=O)Nc1cc(C(=O)N(C)C)ccn1 was 80

response.value for CCn1nc(C(C)(C)C)cc1C(=O)Nc1cc(C(=S)N(C)C)ccc1F (field: Plant response rating, Quackgrass) = 80

Reported Plant response rating, Quackgrass of Cc1nn(C(C)(C)C)nc1C(=O)Nc1cccc(C(=O)N2CC=CC2)c1 : 60
